- Tested on: Leishmania amazonensis
- experiment-notes: Antileishmanial activity against Leishmania amazonensis WHOM/BR/75/Josefa amastigotes transfected with green fluorescent protein infected in murine macrophages after 72 hrs by fluorometric analysis
- Assay type: functional
measured-attribute: IC50 (µM)

(P) CC(=O)[O-].CCCCCCCCCCn1cc(CO)[n+](C)n1
(Q) CCCCCCCCCCCCCCCCOP(=O)([O-])OCC[N+](C)(C)C
Query: Hi, I'm comparing two records. Which one has the lower IC50, P or Q ? // caller expects the label of the chosen entry
Result: P

* * *

- Tested on: Leishmania amazonensis
- experiment-notes: Antileishmanial activity against Leishmania amazonensis IFLA/BR/1967/PH8 promastigotes after 72 hrs by MTT assay
- Type: functional
measured-attribute: IC50 (nM)
The reply should be a number in nM, with the unit left off.

Sample records with IC50:
INSERT INTO assay_data (mol, val) VALUES
  ('CCCCCCCCCCn1cc(CO)[n+](CCC)n1', 700),
  ('CC(=O)[O-].CCCCCCCCCCn1cc(CO)[n+](C)n1', 2600);

Query: Name the recorded IC50 for "CCCCCCCCCCn1cc(CO)[n+](C)n1" .
Result: 14300

Attribution: ChEMBL document CHEMBL4033653
